Reported growth values for a set of molecules
System: MCF7 breast
Experiment: NCI-60 one-dose screen, 48 h (100 = growth as untreated, 0 = no growth, -100 = all killed)
Conditions: 10 µM
Protocol: Growth inhibition of the MCF7 human tumor cell line is measured as a screen for anti-cancer activity. Cells are grown in 96 well plates and exposed to the test compound for 48 hours. Compounds are tested at a single concentration, which is 10^-5 M for most compounds. The reported endpoint is percent growth (GI% or GIPRCNT), where numbers from 0 - 100% represent growth inhibition, and numbers from -100% - 0 represent cell death. For example, a value of 40 represents 60% growth inhibition. […]
The panel holds about 83,000 compounds, 20% with a hit somewhere; the sample as a whole holds those more often.
Just the number please, in %, no unit attached.

Some molecules with known growth results, for comparison:
>  <Molecule>
COC1=C(C)C(=O)C2=C(C1=O)C(CO)N1C(C#N)C3CC4C(C1C2N1CCOC41)N3C (stereo unspecified)

>  <Measured metric>
growth

>  <Numeric result>
-0.551

$$$$
>  <Molecule>
CC1=C2C(=O)[C@H]3[C@@H](CC=C4C[C@@H](O)CC[C@@]43C)[C@@H]2CC[C@]12O[C@@H]1C[C@H](C)CN[C@H]1[C@H]2C

>  <Measured metric>
growth

>  <Numeric result>
91.6

$$$$
>  <Molecule>
S=C(SSC(=S)N1CCCCC1)N1CCCCC1

>  <Measured metric>
growth

>  <Numeric result>
80.1

$$$$
>  <Molecule>
C[C@H]1CCC/C=C/[C@@H]2C[C@H](O)C[C@H]2[C@H](O)/C=C/C(=O)O1

>  <Measured metric>
growth

>  <Numeric result>
-11.9

$$$$
>  <Molecule>
CC[C@](O)(C(=O)O)c1cc2n(c(=O)c1CO)Cc1cc3ccccc3nc1-2

>  <Measured metric>
growth

>  <Numeric result>
1.99

$$$$
>  <Molecule>
Oc1cc[c]([Hg][Cl])cc1

>  <Measured metric>
growth

>  <Numeric result>
50.5

$$$$

Attention now turns to another entry.
Asked: Recall and state the measured growth for CC[C@@]1(O)C(=O)OCc2c1cc1n(c2=O)Cc2cc3ccccc3nc2-1 .
Given back: 2.07

----------
test system: OVCAR-5 ovarian; assay: NCI-60 one-dose screen, 48 h (100 = growth as untreated, 0 = no growth, -100 = all killed); settings: 10 µM unless noted
Compounds without any hit were thinned out: in the full panel of roughly 83,000, 20% have a hit. Calls of active or inactive are those of the source. The calls were made as follows: active = growth percent below 10; inactive = the rest.
Reported growth values for a set of compounds

Some compounds with known growth results, for comparison:
>  <Compound>
CC[C@@]1(O)C[C@H](OC2CC(N(C)C)C(OC3CC(O)C(OC4CCC(=O)C(C)O4)C(C)O3)C(C)O2)c2c(cc3c(c2O)C(=O)c2c(O)ccc(O)c2C3=O)[C@H]1C(=O)OC (stereo not given in full)

>  <growth>
1.64% (active)

$$$$
>  <Compound>
CCCCCCCCCCCC1CCCC(C)N1 (stereo not given)

>  <growth>
88.8% (inactive)

$$$$
>  <Compound>
CCOC(=O)C(NC(=O)C(Cc1ccc(N(CCCl)CCCl)cc1)NC(C)=O)C(C)C (stereo not given)

>  <growth>
105% (inactive)

$$$$
>  <Compound>
NCCc1ccc(OCc2ccccc2)c(OCc2ccccc2)c1

>  <growth>
105% (inactive)

$$$$
>  <Compound>
CCC(=O)OC1CCn2c1nc1c2C(=O)C(C)=C(N2CC2)C1=O (stereo not given)

>  <growth>
13.5% (inactive)

$$$$
>  <Compound>
COC1=C(C)C(=O)C2=C(C1=O)C(CO)N1C(C#N)C3CC4C(C1C2N1CCOC41)N3C (stereo not given)

>  <growth>
11.1% (inactive)

$$$$
>  <Compound>
C[C@H]1CCC/C=C/[C@@H]2C[C@H](O)C[C@H]2[C@H](O)/C=C/C(=O)O1

>  <growth>
32.1% (inactive)

$$$$
>  <Compound>
COC1CC(CC2CCC(C)C(C(C)C(=O)O)O2)OC2(OC(C)(C3CCC(C)(C4OC(C5OC(O)(CO)C(C)CC5C)CC4C)O3)CC2C)C1C (stereo not given)

>  <growth>
14% (inactive)

$$$$

Asked: Recall and state the measured growth for O=C1c2ccccc2C(=O)C(Cl)C1Cl (stereo not given) .
Given back: 112% (inactive)

Asked: Recall and state the measured growth for C[C@]12CC[C@H](O)CC1=CC[C@@H]1[C@@H]2CC[C@]2(C)C(=O)CC[C@@H]12 .
Given back: 92.3% (inactive)

Asked: Recall and state the measured growth for Cc1cc(N=Nc2ccccc2C)ccc1N .
Given back: 84.7% (inactive)

Asked: Recall and state the measured growth for CC1=C2C(=O)[C@H]3[C@@H](CC=C4C[C@@H](O)CC[C@@]43C)[C@@H]2CC[C@]12O[C@@H]1C[C@H](C)CN[C@H]1[C@H]2C .
Given back: 94% (inactive)
